- measurement target: T1, recombinant His-tagged human PD-1 (Acro Biosystems) (human, UniProt Q15116 25-167)
- T1 construct: His-tagged; also called hPD-1
- T1 sequence (Q15116 25-167 limits assumed): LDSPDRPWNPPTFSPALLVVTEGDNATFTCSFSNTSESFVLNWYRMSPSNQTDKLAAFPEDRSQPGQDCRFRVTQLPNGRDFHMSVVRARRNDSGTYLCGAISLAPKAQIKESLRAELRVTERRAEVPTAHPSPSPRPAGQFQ
- experiment description: SPR Carterra LSA;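 note: antibodies or fusion proteins amine-coupled on an HC30M chip, soluble His-tagged human or cynomolgus PD-1 titrated over them, non-regenerative kinetics, constants fitted from titration curves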
reported metric: Kd
Please answer using a numeric value trailed by its unit.

What does the data say about its Kd? Entry: D12-hIgG4 (antibody, V domains shown) VH: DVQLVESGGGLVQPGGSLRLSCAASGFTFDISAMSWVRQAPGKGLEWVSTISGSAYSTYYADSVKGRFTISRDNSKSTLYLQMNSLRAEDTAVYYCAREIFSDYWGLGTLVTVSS VL: QSVLTQPPSASGTPGQRVTISCSGNTSNIGRESVYWYQQLPGTAPKLLIYSNVQRPSGVPDRFSGSKSGTSASLAISGLQSEDEADYYCGTWDDSLNGWVFGGGTKLTVLG 8.1 nM
